The origin of these recorded values is ChEMBL document CHEMBL1772962.

experiment: Clearance in Han Wistar rat at 10 mg/kg, po and 3 mg/kg, iv; format: ADME, organism-based; details: in vivo
endpoint.label: clearance (mL/min/kg)

P: Cc1cc(Nc2nc(N[C@@H](C)c3ccc(F)cn3)c(C#N)cc2F)n[nH]1
Q: Cc1cc(Nc2nc(N[C@@H](C)c3ccc(F)cc3)c(C#N)cc2F)n[nH]1
R: Cc1cc(Nc2nc(N[C@@H](C)c3ccc(F)cn3)c(C#N)cc2Cl)n[nH]1
Task field, ranking: reported clearance, descending order. Would you mind listing the labels in the order asked for?
Q, P, R
(Q: 7.5 mL/min/kg, P: 4.8 mL/min/kg, R: 2.3 mL/min/kg)

----------
molecular target: Tyrosine-protein kinase JAK3 (Homo sapiens); experiment: Inhibition of TEL-fused JAK3-induced proliferative activity against mouse BA/F3 cells; type: cell-based; settings: BaF3
endpoint.label: GI50 (nM)

P: Cc1cc(Nc2nc(N[C@@H](C)c3ccc(F)cn3)c(C#N)cc2Cl)n[nH]1
Q: C[C@H](Nc1nc(Nc2cc(C3CC3)[nH]n2)c(F)cc1C#N)c1ccc(F)cc1
API: POST /compare with P and Q ; response names the item with higher GI50. Field: selected label. Fill in the label of the entry you choose.
Q

A: Cc1cc(Nc2nc(N[C@@H](C)c3ccc(F)cc3)c(C#N)cc2F)n[nH]1
B: Cc1cc(Nc2nc(N[C@@H](C)c3ccc(F)cn3)c(C#N)cc2F)n[nH]1
In the pair A and B , the larger recorded GI50 belongs to which? Indicate which entry you chose by stating its label.
B
(B: 1300 nM, A: 350 nM)

----------
assay: Clearance in dog; format: ADME, organism-based, Canis lupus familiaris; conditions: in vivo
endpoint.label: clearance (mL/min/kg)
Give just the number in mL/min/kg; leave the unit off.

// query clearance value for entry Cc1cc(Nc2nc(N[C@@H](C)c3ccc(F)cn3)c(C#N)cc2F)n[nH]1
7.4

----------
Target: Tyrosine-protein kinase JAK3 (Homo sapiens, UniProt P52333)
Sequence (P52333 whole entry): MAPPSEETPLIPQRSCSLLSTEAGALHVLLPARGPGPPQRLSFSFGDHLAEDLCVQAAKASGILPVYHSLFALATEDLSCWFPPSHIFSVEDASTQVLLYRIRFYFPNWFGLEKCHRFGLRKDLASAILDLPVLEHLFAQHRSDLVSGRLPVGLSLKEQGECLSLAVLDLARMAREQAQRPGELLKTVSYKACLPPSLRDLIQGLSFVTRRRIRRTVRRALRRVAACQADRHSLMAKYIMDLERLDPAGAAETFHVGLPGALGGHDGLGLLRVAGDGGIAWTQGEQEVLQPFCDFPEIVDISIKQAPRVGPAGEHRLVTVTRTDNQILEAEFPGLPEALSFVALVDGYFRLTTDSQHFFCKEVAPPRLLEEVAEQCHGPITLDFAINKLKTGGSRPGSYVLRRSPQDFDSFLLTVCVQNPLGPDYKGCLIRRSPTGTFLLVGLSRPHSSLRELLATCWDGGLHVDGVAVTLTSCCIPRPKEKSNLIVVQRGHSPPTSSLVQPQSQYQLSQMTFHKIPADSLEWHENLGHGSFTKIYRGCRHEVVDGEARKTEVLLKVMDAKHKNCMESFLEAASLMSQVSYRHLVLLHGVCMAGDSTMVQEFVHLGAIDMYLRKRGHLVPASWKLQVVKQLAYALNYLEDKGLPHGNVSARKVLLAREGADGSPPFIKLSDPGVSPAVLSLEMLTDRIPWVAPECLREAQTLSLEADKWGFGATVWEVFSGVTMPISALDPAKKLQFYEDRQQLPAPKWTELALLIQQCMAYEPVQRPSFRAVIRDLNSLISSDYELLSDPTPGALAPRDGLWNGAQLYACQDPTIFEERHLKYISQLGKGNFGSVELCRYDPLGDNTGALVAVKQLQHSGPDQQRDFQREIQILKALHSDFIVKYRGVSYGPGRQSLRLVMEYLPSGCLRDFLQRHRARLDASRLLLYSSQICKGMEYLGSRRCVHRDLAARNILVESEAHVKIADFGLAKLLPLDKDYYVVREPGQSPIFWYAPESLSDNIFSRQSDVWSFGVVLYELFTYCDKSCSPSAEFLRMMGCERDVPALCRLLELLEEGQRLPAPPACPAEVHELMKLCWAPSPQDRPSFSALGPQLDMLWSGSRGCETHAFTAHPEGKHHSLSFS
Assay: Inhibition of human JAK3
endpoint.label: pIC50
Bear in mind: pIC50 is minus log10 of a mol/L concentration; give just that figure.

Record request: pIC50 value, item Cc1cc(Nc2nc(N[C@@H](C)c3ccc(F)cn3)c(C#N)cc2F)n[nH]1
7.82

----------
experiment: Half life in Han Wistar rat at 10 mg/kg, po and 3 mg/kg, iv; assay type: ADME, organism-based; details: in vivo
endpoint.label: half-life (h)

Cc1cc(Nc2nc(N[C@@H](C)c3ccc(F)cn3)c(C#N)cc2Cl)n[nH]1 : 2.7

1: Cc1cc(Nc2nc(N[C@@H](C)c3ccc(F)cn3)c(C#N)cc2F)n[nH]1
2: Cc1cc(Nc2nc(N[C@@H](C)c3ccc(F)cc3)c(C#N)cc2F)n[nH]1
When their half-life values are compared, which is larger, 1 or 2 ? Please reply using the label of the selected record.
2
(2: 5.7 h, 1: 2.2 h)

----------
experiment: Half life in dog; type: ADME, organism-based, Canis lupus familiaris; settings: in vivo
endpoint.label: half-life (h)
Provide the reading as a plain figure in h.

Please look up its half-life: Cc1cc(Nc2nc(N[C@@H](C)c3ccc(F)cn3)c(C#N)cc2F)n[nH]1
3.6

----------
biological target: Tyrosine-protein kinase JAK2 (Homo sapiens); assay: Inhibition of JAK2 after 60 min
Sequence (O60674 whole entry): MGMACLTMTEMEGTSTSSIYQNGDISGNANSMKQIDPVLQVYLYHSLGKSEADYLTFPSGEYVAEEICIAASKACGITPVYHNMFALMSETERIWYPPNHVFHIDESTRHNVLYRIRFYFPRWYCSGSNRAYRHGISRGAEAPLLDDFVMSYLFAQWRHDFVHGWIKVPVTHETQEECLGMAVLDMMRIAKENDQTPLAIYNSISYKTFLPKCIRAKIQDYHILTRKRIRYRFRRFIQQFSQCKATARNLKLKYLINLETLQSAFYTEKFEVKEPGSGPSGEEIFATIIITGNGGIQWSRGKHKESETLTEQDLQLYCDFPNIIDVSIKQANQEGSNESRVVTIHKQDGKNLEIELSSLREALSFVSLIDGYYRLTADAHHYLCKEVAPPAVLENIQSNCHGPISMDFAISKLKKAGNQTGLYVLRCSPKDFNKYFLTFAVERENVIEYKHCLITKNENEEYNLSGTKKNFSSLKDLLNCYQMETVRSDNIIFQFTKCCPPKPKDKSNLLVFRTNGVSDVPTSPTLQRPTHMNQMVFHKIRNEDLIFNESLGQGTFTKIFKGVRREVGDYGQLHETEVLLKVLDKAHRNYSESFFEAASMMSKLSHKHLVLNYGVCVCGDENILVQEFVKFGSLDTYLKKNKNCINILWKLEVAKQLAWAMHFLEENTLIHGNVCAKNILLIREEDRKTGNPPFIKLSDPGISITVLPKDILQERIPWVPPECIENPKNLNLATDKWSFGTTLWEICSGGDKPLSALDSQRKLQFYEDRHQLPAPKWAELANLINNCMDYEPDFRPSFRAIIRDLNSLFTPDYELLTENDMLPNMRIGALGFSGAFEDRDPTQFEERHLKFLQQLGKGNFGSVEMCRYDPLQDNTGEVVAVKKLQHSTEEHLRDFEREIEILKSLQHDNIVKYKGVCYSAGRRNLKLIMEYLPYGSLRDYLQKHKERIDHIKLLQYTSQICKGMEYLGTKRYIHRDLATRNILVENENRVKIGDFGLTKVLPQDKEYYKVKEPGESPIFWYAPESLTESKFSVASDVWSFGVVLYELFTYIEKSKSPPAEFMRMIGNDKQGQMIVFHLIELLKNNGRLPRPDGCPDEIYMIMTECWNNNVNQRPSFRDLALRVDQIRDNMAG
pIC50: −log10 of the molar value.
endpoint.label: pIC50

These recorded examples may help you get a feel for the data.
Cc1cc(Nc2nc(N[C@@H](C)c3ccc(F)cn3)c(C#N)cc2Cl)n[nH]1 : > 8.52
Cc1cc(Nc2nc(N[C@@H](C)c3ccc(F)cn3)c(C#N)cc2F)n[nH]1 : > 8.52

Given the entry Cc1cc(Nc2nc(N[C@@H](C)c3ccc(F)cc3)c(C#N)cc2F)n[nH]1 , report its measured pIC50.
> 8.52
